experiment: MTT cytotoxicity assay on Vero cells; type: cell-based; conditions: MTT, calculated after 2 h of peptide treatment
Where a SMILES comes first, the peptide text is derived from it. [ ]: non-standard residue; d: D form. The star is where a group is joined. Palmitoyl = CCCCCCCCCCCCCCCC(=O)*; Nle = CCCC[C@H](N)C(=O)O
readout-type: CC50

1. CCCCCCCCCCCCCCCC(=O)N[C@@H](Cc1ccccc1)C(=O)N[C@H](C(=O)N1CCC[C@H]1C(=O)N[C@@H](Cc1c[nH]c2ccccc12)C(=O)N[C@@H](Cc1ccccc1)C(=O)N[C@@H](CO)C(=O)N[C@@H](CCCCN)C(=O)N[C@@H](Cc1ccccc1)C(=O)N[C@H](CC(C)C)C(=O)N[C@@H](CCCC)C(=O)N[C@@H](CCCNC(=N)N)C(=O)N[C@H](C(=O)N[C@@H](CC(C)C)C(N)=O)[C@@H](C)CC)C(C)C [TL6.8] (Palmitoyl-FVPWFSKF[dL][Nle]RIL-NH2) : > 100 µM

meta.source: paper PMC8878748
